Dear all, this message contains IC50 results, target or system Platelet-derived growth factor receptor beta (Mus musculus).
Give the value, in units of µM, as a plain number.

Some solved cases for reference:
chemical-string	assay-result
c1ccc(Oc2ccc3n[nH]c(-c4nc5cc(N6CCC(N7CCCCC7)CC6)ccc5[nH]4)c3c2)cc1	0.008
c1ccc(COc2ccc3[nH]nc(-c4nc5ccc(N6CCC(N7CCCCC7)CC6)cc5[nH]4)c3c2)cc1	0.083
CN1CCC(N(C)c2ccc3nc(-c4n[nH]c5ccccc45)[nH]c3c2)CC1	0.5
c1ccc2c(-c3nc4cc(OCCCN5CCCC5)ccc4[nH]3)[nH]nc2c1	0.44
CN1CCN(Cc2ccc3[nH]c(-c4[nH]nc5ccccc45)nc3c2)CC1	1.9
c1cc2[nH]nc(-c3nc4ccc(N5CCC(N6CCCCC6)CC5)cc4[nH]3)c2cc1NCC1CCCCC1	1.7
CN1CCN(c2ccc3[nH]c(-c4[nH]nc5ccccc45)nc3c2)CC1	0.17
FC(F)(F)c1ccc2c(-c3nc4ccc(N5CCC(N6CCCCC6)CC5)cc4[nH]3)n[nH]c2c1	0.062
c1ccc2c(-c3nc4ccc(N5CCOCC5)cc4[nH]3)n[nH]c2c1	0.26
c1ccc(COc2ccc3c(-c4nc5ccc(N6CCC(N7CCCCC7)CC6)cc5[nH]4)n[nH]c3c2)cc1	0.18

Problem: Can you share its IC50? I mean this compound: CC(C)(C)NC(=O)Nc1cccc2[nH]nc(-c3nc4cc(N5CCC(N6CCCCC6)CC5)ccc4[nH]3)c12
Solution: 0.44

Problem: Same read-out for c1ccc2c(-c3nc4cc(-n5ccnc5)ccc4[nH]3)n[nH]c2c1 ?
Solution: 1.4
